All figures here come from patent US20240108738A1.

Target Of Assay: T1, Human NKp46 Fc tag (Acro Biosystems, NC1-H5257) (human, UniProt O76036 22-255)
T1 construct: bought; also called Fc-tagged human NKp46
T1 sequence (O76036 22-255 limits assumed): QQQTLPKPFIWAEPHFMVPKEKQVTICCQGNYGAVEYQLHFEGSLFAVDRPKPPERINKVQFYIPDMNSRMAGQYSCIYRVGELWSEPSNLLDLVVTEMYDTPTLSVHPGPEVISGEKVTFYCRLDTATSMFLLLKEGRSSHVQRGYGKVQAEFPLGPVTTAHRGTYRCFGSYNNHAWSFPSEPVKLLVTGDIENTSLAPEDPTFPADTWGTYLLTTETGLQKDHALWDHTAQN
Procedure Details: SPR Method 1 and/or 2
Numbered stars: 1 amine (or outer) side, 2 acyl side, 3 side chain; on linkers, the order of the positions; unused ones are H or OH. Bridge positions count the residues as written; N and C are the ends. Square brackets hold non-standard residues; d marks the D form. Ends that are not written are not given here. TATA = O=C(CC[*:1])N1CN(C(=O)CC[*:2])CN(C(=O)CC[*:3])C1; Pip = O=C(O)[C@@H]1CCCCN1
The reader will find reported Kd values listed item by item below.
Quantity: Kd (nM)

1. ACNLQA[Pip]CMLTGKVCA-NH2 (linker 2-8-15 via TATA; N-terminus assumed; SMILES CSCC[C@@H]1NC(=O)[C@@H]2CSCCC(=O)N3CN(CN(C3)C(=O)CCSC[C@@H](C(=O)N[C@@H](C)C(N)=O)NC(=O)[C@H](C(C)C)NC(=O)[C@H](CCCCN)NC(=O)CNC(=O)[C@H]([C@@H](C)O)NC(=O)[C@H](CC(C)C)NC1=O)C(=O)CCSC[C@H](NC(=O)[C@H](C)N)C(=O)N[C@@H](CC(N)=O)C(=O)N[C@@H](CC(C)C)C(=O)N[C@@H](CCC(N)=O)C(=O)N[C@@H](C)C(=O)N1CCCC[C@H]1C(=O)N2, scaffold TATA) [BCY19701]	4030
2. ACDLTT[His1Me]NCQWGICA-NH2 (linker 2-9-14 via TATA; not fully specified, scaffold TATA) [BCY18281]	424
